system: PC-3 prostate; assay: NCI tumour cell line growth inhibition, 48 h
parameter measured: TGI

* NC(N)=NCC1CCCCCCN1 (stereo unspecified) | > 100 µM

# evaluate next
TGI recorded for this compound, COC(=O)C1CCC(=S)N1C(=O)OCc1ccccc1 (stereo unspecified) , is > 100 µM

* * *

Let's look at some compounds and their measured TGI.
system: SK-OV-3 ovarian; assay: NCI tumour cell line growth inhibition, 48 h

Reference set, count: 5
* CC(=O)c1[nH]c(NC(C)C)c(C(=S)Nc2ccccc2)c1N | > 100 µM
* O=C1C=CC2OC(c3ccccc3)C(O)C2O1 (configuration not stated) | 39.5 µM
* O=C1CSC(c2c[nH]c3ccccc23)N1c1ccc(Cl)cc1 (configuration not stated) | > 100 µM
* Cc1cc(Cl)nc2nc(Cl)c(N)cc12 | 37.8 µM
* CN(CCCCCl)P(=O)(OCCS(=O)(=O)CC(NC(=O)CCC(N)C(=O)O)C(=O)NC(C(=O)O)c1ccccc1)OCC1OC(n2ccc(N)nc2=O)C(O)C1O (configuration not stated) | > 75 µM

Sample COc1cccc(/C=C/C(=O)c2ccc(SC)cc2)c1OC ; TGI observed: 40.6 µM

So for COc1cc(-c2nc3ccc(N4CCN(C)CC4)cc3[nH]2)c(OC)c2[nH]c(COC(C)=O)nc12 , the logged TGI turned out to be > 100 µM

Per the record, COC(=O)c1ccc2c(c1)C(=O)c1c-2n(CCCCl)c(=O)c2cc([N+](=O)[O-])ccc12 has TGI of > 100 µM

Lab note: measured TGI of N=C(N)c1ccc(-c2ccc(/C=C/c3ccccc3)s2)cc1 was 4.9 µM

Entry CCCCCCCCCCCCCCCCCc1nccn1CCOCCO ; TGI = 10.8 µg/mL

Entry COc1cc2c3cc1Oc1c(OC)c(OC)cc4c1C(=NCC4)Cc1ccc(cc1)Oc1cc(ccc1O)C[C@H]3N(C)CC2 , TGI reported as > 100 µM

# TGI (compound: CSC1NC(c2ccccc2)=C(C#N)C(=O)N1C1OCC(OC(C)=O)C(OC(C)=O)C1OC(C)=O (configuration not stated) ) is > 100 µM

// NC(=NCc1ccccc1)C(N=Nc1ccccc1)C(=O)NCc1ccccc1 (configuration not stated) : TGI value = 47.7 µM

TGI measured on COc1ccc(OC)c(NCC(=O)Nn2cnc3ccc(S(=O)(=O)Nc4cc(OC)ccc4OC)cc3c2=O)c1 = > 100 µM

Summary for this compound, Cc1[nH]c(=O)[nH]c(=O)c1/C=C/C(=O)O (tested in a mixture with another compound) : TGI is > 625 µM

// sample O=C1C(=C(C(F)(F)Cl)C(F)(F)Cl)C2CCC1C2 (configuration not stated) , its TGI was > 10 µM

Lab book: TGI of COc1cc(C2CC(c3cccc(Nc4ccnc5cc(Cl)ccc45)c3)=NN2c2ccc(Cl)cc2)cc(OC)c1OC (configuration not stated) noted as > 100 µM

Query Cc1ccc(C2(c3ccc(Cl)cc3)c3ccccc3C3=NCCN32)cc1 (configuration not stated) yields TGI of 20.7 µM

Entry under test: CCOC(=O)CC(c1ccccc1)C(C)(C(=O)OCC)C(=O)OCC (configuration not stated) . Its TGI was > 100 µM

According to the records, this compound COc1cc2c(c(OC)c1OC)C(=O)[C@@H]1[C@H]2N1C(=O)NCCCl displays TGI of > 100 µM

In plain terms, COC(=O)C1=C(O)[C@H](C(=O)OC)C2(O)C(C(=O)OC)[C@H](c3ccc(OC(=O)C(C)c4ccccc4)cc3)C[C@@H]1[C@@H]2C(=O)OC (some centres not stated) has a documented TGI of > 50 µM

Entry under test: O=[N+]([O-])C(/C=C(\Cl)[N+](=O)[O-])=C1Nc2ccccc2N1 . Its TGI was > 100 µM
